system: SIK2; conditions: concentration: 1 μM, replicates: in singlicate; n = 1;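 further: KINOMEscan kinase panel screen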
measured_quantity: %Inh (%)

INSERT INTO measurements (compound, readout_value) VALUES
  ('O=C(Nc1ccccc1F)NC1CCN(c2ccnc(Nc3ccc(F)cc3)n2)CC1 [GSK1379800]', 0),
  ('Cc1ccc(C(=O)Nc2ccc(Nc3ccnc4cc(-c5nccs5)ccc34)cc2O)cc1.Cl [GW494702]', 5),
  ('Cc1ccc(C(=O)N2CC[C@@H](O)C2)cc1-n1c(C)cc(OCc2ccc(F)cc2F)c(Br)c1=O', 27),
  ('CCS(=O)(=O)c1ccc(OC)c(Nc2nccc(-c3c(-c4cccc(NC(=O)c5c(F)cccc5F)c4)nn4ncccc34)n2)c1 [GSK326180]', 0),
  ('COc1cccc(C2=C(Nc3ccc(Cl)c(C(=O)O)c3)C(=O)NC2=O)c1 [SB-390769]', 0),
  ('COc1cccc(-c2ccc3c(NC(=O)C4CC4)n[nH]c3n2)c1 [SB-710903]', 0),
  ('COc1cc(Nc2ncc3c(C)nc(-c4cc5ccccc5[nH]4)n3n2)cc(OC)c1OC [GW869516]', 29),
  ('O=C(Nc1cccc(-c2nn3ncccc3c2-c2ccnc(Nc3ccccc3)n2)c1)c1c(F)cccc1F [GSK198271]', 6),
  ('CN1CCN(Cc2cccc(-c3ccc4c(Nc5ccc(Oc6ccccc6)cc5)ccnc4c3)c2)CC1 [GW578342]', 1),
  ('Cl.NC(=O)c1cccc(Nc2nccc(Nc3ccc(Oc4c(Cl)cccc4Cl)c(Cl)c3)n2)c1 [GW659009]', 0),
  ('Cc1cccc(Nc2nc(N[C@H]3CCNC3)ncc2C(N)=O)c1.Cl [GSK2197149]', 30),
  ('O=C(Nc1cccc(-c2nn3ccccc3c2-c2ccnc(Nc3cccc(F)c3)n2)c1)c1c(F)ccc(F)c1Cl [GSK357952]', 16),
  ('COc1ccc(Nc2nccc(NCCNC(=O)c3cc4ccccc4s3)n2)cc1 [GSK1379896]', 0),
  ('CN(C)Cc1ccc(-c2ccc3c(Nc4ccc(Oc5ccccn5)cc4)ccnc3c2)o1 [GW567148]', 79),
  ('c1ccc(Oc2ccc(Nc3ccnc4cc(-c5ccc(CNCCN6CCOCC6)o5)ccc34)cc2)nc1 [GW567145]', 78),
  ('COc1ccc(-c2coc3ccc(-c4nnc(SCc5ccc(OC)c(C(F)(F)F)c5)o4)cc23)cc1', 21),
  ('CCc1ccc(-c2ccc3c(c2)-c2c(cnn2C)S(=O)(=O)N3C)cc1', 4);

----------
test system: CDK4; conditions: concentration: 1 μM, replicates: in singlicate; n = 1
measured_quantity: %Inh (%)

INSERT INTO measurements (molecule, system, measured_quantity, units_symbol, readout_value) VALUES
  ('O=C(Nc1cccc(-c2nn3ncccc3c2-c2ccnc(Nc3ccccc3)n2)c1)c1c(F)cccc1F [GSK198271]', 'CDK4', '%Inh', '%', 0),
  ('Clc1ccc(-c2nn3ncccc3c2-c2ccnc(Nc3ccc4c(c3)OCCO4)n2)cc1 [GW829116]', 'CDK4', '%Inh', '%', 0),
  ('Cn1cc(-c2ccc3c(c2)CCN3C(=O)Cc2cccc(Cl)c2)c2c(N)ncnc21 [GSK2606590]', 'CDK4', '%Inh', '%', 34),
  ('CN1CCN(Cc2cccc(-c3ccc4c(Nc5ccc(Oc6ccccc6)cc5)ccnc4c3)c2)CC1 [GW578342]', 'CDK4', '%Inh', '%', 34),
  ('CN1CCN(CCCNc2nccc(-c3c(-c4ccc(F)cc4)nn4cc(C(F)(F)F)ccc34)n2)CC1 [GW621581]', 'CDK4', '%Inh', '%', 0),
  ('COc1ccc(Nc2nccc(NCCNC(=O)c3cc4ccccc4s3)n2)cc1 [GSK1379896]', 'CDK4', '%Inh', '%', 13),
  ('COc1cc(Nc2nccc(N3CCC(NC(=O)Nc4cccc(C(C)=O)c4)C3)n2)cc(OC)c1OC (centres unmarked) [GSK1379753]', 'CDK4', '%Inh', '%', 0),
  ('CCn1c(-c2nonc2N)nc2c(C#CC(C)(C)O)nc(OC[C@H](N)c3ccccc3)cc21 [GSK943949]', 'CDK4', '%Inh', '%', 0),
  ('CC(C)(C)c1ccc2nccc(Nc3cccc(O)c3)c2c1 [GW856795]', 'CDK4', '%Inh', '%', 32),
  ('COc1cccc(NC(=O)NC2CCN(c3ccnc(Nc4cc(OC)c(OC)c(OC)c4)n3)C2)c1 (centres unmarked) [GSK1379763]', 'CDK4', '%Inh', '%', 0),
  ('COc1cccc(C(=O)Nc2cccc(Oc3ccc4nc(NC(=O)C5CC5)cn4n3)c2)c1', 'CDK4', '%Inh', '%', 0);
